Procedure Details: protease stability score; higher = more stable; yeast display proteolysis, trypsin and chymotrypsin;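 note: relative to predicted unfolded state with 0 unfolded-like and 1 meaning tenfold more protease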
Recorded protease stability score values for a group of sequences are listed next.
Measured Parameter: protease stability score

Sequence String | Measured Parameter | Measured
DEIERLFRELVNLIFELLRTGNFRKLEELLDPHTRLTIGDKYYHGRESVIEYLKHLWEQLGVDHMEFHVKRVDIQGEKVNADTEIRIKIGDKTYFRDTVLIFLKIDGRWEIRAWEEK | protease stability score | 1.52
DESEEDVEYFVKILDRAWATGDEDTLRRLLDPHYRVHVDGKDIIGREEVVRLFKEMGWELRFHRDHIHVQGDKMFIHGTLRLIYNGRIEEREIHLDVNKINGRWLNERVEIR | protease stability score | 1.81
SEEEKELREIMKVFKDAFLTGNEDLLRQLMDPHVRFHIGDKKNHGWEALHEYLLRIDHLDDLHSHLTEVHIQGDKVKIDGHLHMVERYGDFRFEREIRVHIVIEKINGRWIIEEVHFI | protease stability score | 1.35
DELKTDFENAIRLYEHATKTGDEHEIRKLLDPHVRVDINGREHHGMEHYSDLLHEFLKRLGADHIQFEFKDSHLQGNKLHLHGIIHVHVGDKTHTIDSSVIYEKVDGRWIISSVWYR | protease stability score | 1.01
NHQQIAFHFLWDIVEYLLMTGDEHILEKYADPTVKTLVDGRELHGREDVIRFFHEMFKRIDHIQDVKLHDYRFQGNKVEIDSRIIGTIDGQRDVITVTWRVLKVDGRWLIHTVELH | protease stability score | 1.69
DEDEELLREFFELLVEAELTGDEKEITRFADPNVILFQGEKEFHGRDFLIRLIMEIRIHHHELERFHLDVFNGRAEIHVDNRRDGWFDGKRIHTKVDLHIHSEKIDGRWLLKNINEILR | protease stability score | 0.716
SEEEKEAEEFLRKHLHDRLTGDEDWVLRNIDPNARFDINGREIIGMEEWRQWLHEARVRVDDTQIDEKRSVGNKLDVRSTMHVTIEFDGVRVKHILDVELIMTKVDGKWKVKEVRVR | protease stability score | 1.61
DEEIEEARHVFEEVIHNIQTGDEDAYETLMDPNVRLQVGEKKFHGRREVKEWLHEIRVRRYEIRPKDSDVIGEKVIVHGRVRIDGHYNGRDIDLEVQVHRIIVKINGRWFVHEVRIG | protease stability score | 1.28
SEEEQRKEDFLRWFHKALLTGDEEVLLKMADPNVRADINGVDIHGWKEFRQTTHDLRREIRIRDFEVKDEKLVGDKLHVDSSVDGEFDGRRHELKTHLIFLKVDGKWFFKEIRIK | protease stability score | 1.34
DDIDHFLLEIVLRFIEDNLTGNEDNLRKMADPDTRIFIHIGEKEFRIHGREAWTEWILTIVDHMRMRLNIRRLEWQGDKARITQEQDIHVGNKTHTTEVELHIVIIDGKMHTVHVELR | protease stability score | 1.36
SEDDELSKHAFDMLRDSIHTGDEHLNNKLFDPHVRLYYGDKLLIGREHLTRLLFFWAKELRIELRVRHYESQGEKVDIHVELIMRVNGREQKHDVILYLEKVNGRWIMHSIEIR | protease stability score | 0.775
DEEEHSAEHAIRILIELLYTGDEDQLERFMDPNTRLHIYFEGHEIHHHGMELISEIFSEIIHRIKNITYRVEDFHLVNGRVHLHGRWNINGKRTKEHWVVLKVDGVWILERVHIHIQ | protease stability score | 1.27
DEMTEDSERAMEILVRSILTGDEKDLIELADPNVRLDVNGRDYHGWKNFIKVFKKIMDELRIKDTELKDVRNQGEKAILDTRIHGIINGREIIFESSIDHRKINGVWLIERIIIK | protease stability score | 1.1
SHEEHEMHNALKLLLDAWRTGDEDSLNNNADPRMKIKVNGKEFVGMEHMTHFLRELLEELRFTDSTVTELDIVNGVLISVTRLHIEVGDKRMDFHTRLVFTKVNGRWRLHSLVLI | protease stability score | 1.99
DDHEHFHREIWRTWLELQLTGDPHRLERLADPHVRFVYGDKVFHGREKMSEHFERENRELGIDHVEVRIKDSRFIDGRVHHDSELIIRVDGRTYKHDVKVIIDKVDGRWNIQKVEIR | protease stability score | 1.07
AREEEIVEEMARLMRHLWTTGDEEKIDEMLDPDVRVEWRVNGVHLENHGRDQFIRILRRFSDEWRLRSLHDETFRIQGDKVEVDSRFDVQVNGQRDILETEFHLVVVDGRIRHVEIIIK | protease stability score | 1.6
DEEERDLQQFIEEWWKTLVTGDEHLIERYLDPHVRMDWNGRELHGREAIADTIKKYVDEIRLEVRINHVRFQGDKVDIDGEIVERQGDKTRHLNFELEIIVVNGRAQEIRVRLR | protease stability score | 1.48
DEEKHSAEHFMRLWIESFETGDEESIKRLMDPHAKSDFNGVEMHGREYLEVIKREMRVKSSRLHVKHIDVIDGVVIIEGRMILDGEINGVRTRLESDVRFVVEKFDGRWILRSSSIK | protease stability score | 1.31
SDEETITREYIRILIKMMRTGDESTLTRLADPHVRVDINGKDLHGRESLVEEMHKLIRDLGVERIEVHFRNIHIQGEWIVIHIDLQIGDKRFEVRDIALKIDGRWVHKSIEIQ | protease stability score | 1.33
DELDHEIRHVLHIIHHLLLTGDEEIFEEMADPDPRLDLVYGDKKIHVHGWKNILDMLKRLLDHWRIRHVEIKRITTQGNKAHLDTRSNLIINGRELIVIIELNVVTFNGVMKDMRIKIV | protease stability score | 1.65
DEQKNWAKIMLELLEHAWRTGDEHTLQELADPNTRLNIGDKDIIGWDLILTVLIEIRMSFSYRLEEVHTFENHVVLRTRLIRVLHFDGKSTEFVKETELYIEKVDGRWILRHIVIK | protease stability score | 1.29
DRERLADELRRRLEKVMTTGDPTELDKLMDPNARILYGDQKFHGREHVKEFAKTLNDQYDHVTIRLVSYDIKNGEIHIVVDVVFRHNGQTRTKRINFVARVHGDKVKIESINIP | protease stability score | 1.48

Data origin, for the record: the NTF2 design screens of Basanta et al. (2020)
